The measured values listed here are drawn from ChEMBL document CHEMBL1141566.

Test system: HT-29
Assay: Cytotoxicity against human HT29 cells after 72 hrs
Type: functional
Settings: HT-29, 72 h
parameter: TGI (µM)
Give bare numbers, in µM.

[
  {
    "smiles-input": "CN(C)CCCNc1ccc(NCCCN(C)CCCNc2ccc(NCCCN(C)C)c3c2C(=O)c2cnccc2C3=O)c2c1C(=O)c1ccncc1C2=O",
    "value-units": "µM",
    "TGI": 7.9
  },
  {
    "smiles-input": "CN(C)CCNc1ccc(NCCCN(C)CCCNc2ccc(NCCN(C)C)c3c2C(=O)c2cnccc2C3=O)c2c1C(=O)c1ccncc1C2=O",
    "value-units": "µM",
    "TGI": 5.1
  }
]

Alright, here's another compound for you.
Incoming: Supply TGI value. Item: CN(C)CCn1nc2c3c(c(NCCCN(C)CCCNc4ccc5c6c(nn5CCN(C)C)-c5cnccc5C(=O)c46)ccc31)C(=O)c1ccncc1-2
Outgoing: 1.3
